Target: MERS RBD-hFc (MERS-CoV (isolate EMC/2012))
Assay: SPR Biacore, captured mAb, 25 C
quantity.name: t1/2 (h)
Your answer is read as h, so omit the unit and give the number.

{"binder": "H2aM15279N (antibody, V domains shown) VH: EVQLLESGGGLVQTGGSLRLSCAASGFTFSNYAMSWVRQAPGKGLEWVSAISDRGGSIYYADSVKGRFTISRDNSKNTKYLQMDSLRAEDTAVYYCAQDRGFGVFDYWGQGTLVTVSS VL: DIQMTQSPSSLSASVGDRVTITCQASQDIGNYLNWFQQRPGKAPNLLIYGASNLETGVPSRFSGGGSGTDFTFTISSLQPEDIATYFCQQYDNLPFTFGPGTKVEIK", "measurement.units": "h", "t1/2": 2.17}
{"binder": "H2bM15292N (antibody, V domains shown) VH: QVQLVQSGAEVKKPGSSVKVSCKASGGTFNNYAISWVRQAPGQGLEWMGGIIPFFGTTNYAQKFQDRVTITSDDSTITAYMELSRLRSEDTAVYYCARDEPRRDGYNYYHYYYMDVWGQGTTVTVSS VL: DIQMTQSPSSLSASVGDRVTITCRASQSINSYLNWYQQKPGKAPNLLIYAASSLQSGVPSRFSGSGSGTDFTLTISSLHPEDFATYYCQQSYSTPPITFGQGTRLEIK", "measurement.units": "h", "t1/2": 1.25}

Prompt line: What value of t1/2 has been reported for the following binder? H1M15289N (antibody, V domains shown) VH: QVQLQESGPGLVKPSETLSLTCTVSGGSISSYYWSWIRQPPGKGLEWIGYIYYSGSANYNPSLKSRVTISVDTSKNQFSLKLSSVTAADTAVYYCVRDRDLLLDHWGQGTLVTVSS VL: EIVMTQSPATLSVSPGKRATLSCRASQSVSSNLAWYQQKPGQAPRLLIYGASTRTTGFPARFSGSGSGTDFTLTISSLQSEDFAVYYCQQYNNWPYTFGQGTMLEIK
Response line: 4.37

Reference for the values: patent US20190351049A1
